# credit: PubChem BioAssay

compounds and their reported z-score
- TEST_TARGET: Luciferin 4-monooxygenase (Photinus pyralis)
- TEST_DESCRIPTION: firefly luciferase enzyme inhibitors, primary screen, biochemical, luminescence, purified enzyme, 2006 set (AID 1141);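 note: cell-free assay with purified firefly luciferase at 100 ng per well in PBS; test concentration not given here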
- SETUP_CONDITIONS: SteadyGlo luminescence, 30 min, higher = more signal, called active from +8 up or from −8 down
VALUE_KIND: z-score

Cc1ccc(N2C(=O)c3ccccc3[C@@H](C(=O)NCc3ccccc3)[C@@H]2c2ccc(CO)cc2)nc1; -0.635
Cc1ccccc1C(O)C1C=CC2C(=O)N(c3ccccc3)C(=O)C2N1Nc1ccc(C#N)cc1 (configuration not stated); -1.33
COc1ccc([Si](C)(C)[C@H]2[C@H](CC(=O)N(CCO)Cc3ccccc3)O[C@@]3(C(=O)N(C)c4ccccc43)[C@@H]2C)cc1; 0.59
COC(=O)[C@@]1(Cc2ccccc2N=[N+]=[N-])N=C(c2ccc(OCCCO)cc2)O[C@H]1c1ccccc1CN=[N+]=[N-]; -1.76
COc1cccc([C@@H]2[C@@H](C)CC[C@H]3C(=O)N4[C@H](c5cccc(OC)c5)[C@@H](C)CC[C@H]4C(=O)N23)c1; -1.78
O=C(CS)NCCCCCNC(=O)[C@H]1C[C@H]2C(=O)N[C@@H](Cc3ccccc3)C(=O)N2[C@H]1c1ccc(O)cc1; -2.91
C[C@H]1COC(=O)[C@H](Cc2ccccc2)NC(=O)[C@@H](C)COC(=O)[C@H](Cc2ccccc2)NC1=O; -0.443
